# Test system: M14
# procedure-details: NCI tumour cell line growth inhibition, 48 h
Calls of active or inactive are those of the source. No stated cut-off is given here; in the data, active = GI50 up to about 1.1 µM and inactive = higher.
Please state which outcome applies, choosing from label 1 = active, label 0 = inactive

Query: What did the test return for COC(=O)C(CCSc1ccccc1)C(=O)OC ?
Result: label 0

Query: Another: COc1cc(CC2c3cc(OC)c(OC)cc3CCN2C)c(C(=O)O)cc1OC (configuration not stated)
Result: label 0

Query: Then CN(C(=O)C12C3C4(C(=O)O)C1(C(=O)N(C)C(C)(C)C)C1C2(C(=O)O)C3(C(=O)N(C)C(C)(C)C)C14C(=O)N(C)C(C)(C)C)C(C)(C)C (configuration not stated) ?
Result: label 0

Query: Param item: CCCCc1ccc(N2C(=O)c3cc([N+](=O)[O-])cnc3S2(=O)=O)cc1
Result: label 0

Query: Now this one: CC12CCCC(C(=O)O)(C1)[C@H](C(C)(C)C(=O)O)CC2 (some centres not stated)
Result: label 0

Query: Also check O=C1c2cccc3cccc(c23)C(=O)N1CCCNCCCCNCCCN1C(=O)c2cccc3cccc(c23)C1=O
Result: label 1

Query: # iterate: CN(C)CCSc1cc(-c2ccccc2)c2ccccc2n1
Result: label 0

Query: Can you handle CCCCCCCCCCCCC(CC)CCCCC(=O)O (configuration not stated) next?
Result: label 0

Query: Next molecule: Cc1[nH]n(-c2nc(O)c(C)c(=O)[nH]2)c(=O)c1CCO
Result: label 0

Query: Please answer likewise for CC(C)(C)OC(=O)N[C@H]1CC(O)c2ccccc2N(CC(=O)O)C1=O (some centres not stated)
Result: label 0

Query: // same read-out, input: c1cc(CSP234N5CCN2CCN3CCN4CC5)cc(CSP234N5CCN2CCN3CCN4CC5)c1
Result: label 0

Query: Likewise for Nc1ccc(CCN2CCN(c3cccc(C(F)(F)F)c3)CC2)cc1 ?
Result: label 0

Query: Then this molecule: c1ccc2c(c1)ccc1nc(-c3ccc4c(c3)OCO4)c3c(c12)CCCC3
Result: label 0

Query: Same read-out for O=C1OC(=O)c2cc(S(=O)(=O)c3ccc4c(c3)C(=O)OC4=O)ccc21 ?
Result: label 0

Query: Entry to check: CCOC(=O)N/N=C(\CC)OCC
Result: label 0

Query: // query: Cc1cccc2[nH]c3c(c(O)cc4[nH]c5cccc(C)c5c(=O)c43)c(=O)c12
Result: label 0

Query: Note, next up: NNC(=O)C1(NC(=O)c2ccccc2)C(c2ccccc2)C(c2ccccc2)=NN1c1ccccc1 (configuration not stated)
Result: label 0

Query: Thanks! And CCC1=NC(N/N=C/c2ccco2)=N/C1=C\c1ccccc1O ?
Result: label 0

Query: Same question, c1ccc2[nH]c(C3CCCCO3)nc2c1 (configuration not stated) this time
Result: label 0

Query: Proceed to O=C1CS(=O)(=O)C(c2cccc(Oc3ccccc3)c2)N1c1cccc(Cl)c1 (configuration not stated)
Result: label 0

Query: What about COC(O)C12OC3CO[Si](C(C)C)(C(C)C)O[Si](C(C)C)(C(C)C)OC3C1Oc1nc(=O)ccn12 (configuration not stated) ?
Result: label 0

Query: Entry O=c1nc2n(CCO)c(-c3ccccc3)c(-c3ccccc3)nc-2c(=O)[nH]1 please
Result: label 0

Query: Same thing, different molecule: COc1ccccc1Cn1[nH]c(=O)c2cc([N+](=O)[O-])ccc21
Result: label 0

Query: Also check c1ccc2c(c1)cc1n2CCc2c-1[nH]c1ccccc21
Result: label 0

Query: Queued: COc1ccc(N2C(=O)C3c4[nH]c5c(C)cccc5c4C4CCC(c5ccccc5)CC4C3C2=O)cc1 (configuration not stated)
Result: label 0

Query: Field entry: CCOP(=O)(OCC)/C(=C\N1C(=O)CC(=O)NC1=S)C(=O)OC
Result: label 0

Query: One more molecule: CCOP(=O)(OCC)C(Cc1ccccc1)N=C(c1ccccc1)c1ccccc1 (configuration not stated)
Result: label 0

Query: Thanks! And Cc1c(O)c(=O)ccn1CCc1ccc(O)cc1 ?
Result: label 0

Query: COc1cc(NCc2ccc3nc(N)nc(N)c3c2C)cc(OC)c1OC ?
Result: label 1

Query: CCCNC(=O)c1cc(NC(=O)c2cc(NC(=O)/C=C/c3ccccc3)c(OC)c(OC)c2)c(OC)c(OC)c1 ?
Result: label 0

Query: Would you kindly repeat that for COc1ccc2c3c([nH]c2c1)[C@H](C=C(C)C)N1C(=O)[C@@H]2CCCN2C(=O)[C@@H]1C3 ?
Result: label 0

Query: Then this molecule: Cc1ccc(F)c2[nH]c(-c3ccccc3)cc(=O)c12
Result: label 0

* * *

# Tested on: U-251
# procedure-details: NCI tumour cell line growth inhibition, 48 h
The source made the active and inactive calls. Cut-off read from the data, not from the text of the source: active = GI50 up to about 1.1 µM and inactive = higher.
Select the matching outcome among TRUE for active, FALSE for inactive

Query: Please indicate how the test categorized O=c1nc(N2CCNCC2)oc2cc(Cl)oc(=O)c12 .
Result: FALSE

Query: What do we get for Cc1nn(-c2ccccc2)c(S)c1C(=O)c1ccccc1 ?
Result: FALSE

Query: Ok, now O=C(N/N=C(COc1ccccc1)\N=C\c1ccncc1)c1ccncc1
Result: FALSE

Query: Please answer likewise for O=C(c1ccccc1)N1CCN(C(=S)NC2CCCCC2)C1=S
Result: FALSE

Query: Now this one: COC1CC(OC2CCC3(C)C(CCC45CCC(C6=CC(=O)OC6)C(C)(CCC43)C5=O)C2)OC(C)C1O (centres undefined)
Result: FALSE

Query: Follow-up item: c1ccc([B-]2(c3ccccc3)NCCCO2)cc1
Result: FALSE

Query: Similarly, Fc1cc(C2=C[C@H](c3ccc(Cl)cc3)NC(=S)N2)c(Cl)cc1Cl ?
Result: FALSE

Query: Now consider NNC(=O)C1(NC(=O)c2ccccc2)C(c2ccccc2)C(c2ccccc2)=NN1c1ccccc1 (centres undefined) and answer again.
Result: FALSE

Query: Repeat for the following molecule: CCCCCCSCC/C(C)=N\OC
Result: FALSE

Query: And then O=C1C2Cc3ccccc3CN2C(=O)N1CCN1CCCC1 (centres undefined) , what is it?
Result: FALSE

Query: Next record, please: CCN(CC)CCC(=O)N1C/C(=C/c2ccccc2)C(=O)/C(=C\c2ccccc2)C1
Result: TRUE

Query: Same again, this time with O=C(NC12CC3CC(CC(C3)C1)C2)C(=O)c1c[nH]c2ccccc12
Result: FALSE

Query: Moving on to the next molecule: O=[N+]([O-])c1ccc(-c2nc(/C=N/N3CCCCC3)cs2)o1
Result: FALSE

Query: COc1ccc2c3c([nH]c2c1)[C@H](C=C(C)C)N1C(=O)[C@@H]2CCCN2C(=O)[C@@H]1C3 , same question.
Result: FALSE

* * *

# Tested on: UACC-62
# procedure-details: NCI tumour cell line growth inhibition, 48 h
The source made the active and inactive calls. Rule as the data show it: active = GI50 up to about 1.1 µM and inactive = higher.
Please answer using one outcome listed in 1 (yes) (active), 0 (no) (inactive)

Query: # fetch the recorded call for O=c1/c(=C/c2ccc3c(c2)OCO3)sc2nnc(-c3ccco3)n12 here
Result: 0 (no)

Query: Next up: CCOC(=O)/C(C#N)=C\c1ccc(N(CCC(=O)O)CCC(=O)O)c(I)c1
Result: 0 (no)

Query: // repeat for CC(=O)O[C@H]1CC[C@@]2(C)C(=CC[C@@H]3[C@@H]2CC[C@]2(C)NC(=O)/C(=C\c4ccccc4)C[C@@H]32)C1 and report
Result: 0 (no)

Query: Record: CC[C@]12C=CCN3CC[C@@]4(c5cc(Br)c(OC)cc5N(C)[C@H]4[C@@](O)(C(=O)N[C@@H](Cc4ccc(O)cc4)C(=O)OC)[C@@H]1O)[C@@H]32
Result: 0 (no)

Query: Check C/C(=C(/C)c1ccc(O)cc1)c1ccc(O)cc1 too.
Result: 0 (no)

Query: Input NC(Cc1ccc(S(=O)(=O)O)cc1)C(=O)NC(Cc1ccc(S(=O)(=O)O)cc1)C(=O)NC(Cc1ccc(S(=O)(=O)O)cc1)C(=O)NC(Cc1ccc(S(=O)(=O)O)cc1)C(=O)O (centres undefined)
Result: 0 (no)

Query: Similarly, CS(=O)(=O)Nc1ccc2c(c1)N(S(C)(=O)=O)CC2CCl (centres undefined) ?
Result: 0 (no)

Query: Input O=C1c2ccccc2-c2ccc(/N=[N+](/[O-])c3ccc4c(c3)C(=O)c3ccccc3-4)cc21
Result: 0 (no)

Query: Same for CN1/C(=N\c2ccccc2)S/C1=N/c1ccccc1
Result: 0 (no)

Query: // same read-out, input: C[C@]12CCC(=O)C=C1CC[C@@H]1[C@@H]2CC[C@]2(C)C(=O)/C(=C/c3ccncc3)C[C@@H]12
Result: 0 (no)

Query: # iterate: Cc1cc2occ(C)c(=O)c2c2c1OC(C)(C)S2
Result: 0 (no)

Query: Proceed to O=C(O)C1CC2CC(=O)C1C2 (centres undefined)
Result: 0 (no)

Query: Same again, this time with O=C1c2cccc3cccc(c23)C(=O)N1CCCNCCCCNCCCN1C(=O)c2cccc3cccc(c23)C1=O
Result: 1 (yes)

Query: Try COc1ccc(CN(O)C2C(CO)OC(n3cc(I)c(=O)[nH]c3=O)C2O)cc1 (centres undefined) next.
Result: 0 (no)

Query: Moving on to the next compound: C/C(CN1C(=O)c2ccccc2C1=O)=N\NS(=O)(=O)c1ccccc1
Result: 0 (no)

Query: What do we get for CCOC(=O)/C(=C/c1ccccc1)N(CC)CC ?
Result: 0 (no)

Query: Try the compound COc1ccc(NC(=O)c2cc(NC(=O)/C=C/c3ccccc3)c(OC)c(OC)c2)cc1
Result: 0 (no)

Query: Same for COC(=O)CCCCCOS(=O)(=O)c1ccc(C)cc1
Result: 0 (no)

Query: Same for CCCCCCCCCCCCC(CC)CCCCC(=O)O (centres undefined)
Result: 0 (no)

Query: Likewise for NC(=O)C(N)CC12CC3CC(CC(C3)C1)C2 (centres undefined) ?
Result: 0 (no)

Query: Same question for Brc1ccc(-c2nnc(-c3nn(-c4ccccc4)c4nc5ccccc5nc34)o2)cc1 please.
Result: 0 (no)

Query: Continue with S=C1CC(c2ccccc2)Sc2ccc(Cl)cc2N1 (centres undefined)
Result: 0 (no)

Query: Would you mind doing C=C1CC(COc2ccc3ccc(=O)oc3c2)(c2ccccc2)OC1=O (centres undefined) as well?
Result: 0 (no)

Query: Check O=[N+]([O-])c1ccc(N2N=C(c3ccc4ccccc4c3O)CC2c2ccc(Cl)cc2Cl)c([N+](=O)[O-])c1 (centres undefined) too.
Result: 0 (no)

Query: Continue with CC(C)=NC(C(=O)O)C(C)(C)S (centres undefined)
Result: 0 (no)

Query: Can you check O=c1ccn(/C=C/C(O)C(O)CO)c(=O)[nH]1 (centres undefined) next?
Result: 0 (no)

Query: What do you have for COc1ccc(Nc2c(C#N)c3n(c4ccccc24)c2ccccc2[n+]3C)cc1OC ?
Result: 0 (no)

Query: Record: CC(C)(CO)NC(=O)Nc1c(C(F)(F)F)cc(-c2ccccc2)[nH]c1=O
Result: 0 (no)

Query: Can you handle COC(OC)C(O)C1OC=CC1n1cnc2c(N)ncnc21 (centres undefined) next?
Result: 0 (no)

Query: Also check CCC1=NC(N/N=C/c2ccco2)=N/C1=C\c1ccccc1O
Result: 0 (no)

Query: Further, for COc1cc(C(O)(CC#N)c2cc3c(cc2Br)OCO3)cc(OC)c1OC (centres undefined) ?
Result: 0 (no)

Query: Next: O=C(O)c1ccccc1-c1ccccc1C(=O)c1ccccc1
Result: 0 (no)

Query: What do you have for O=C(c1ccccc1)N1CCN(C(=S)NC2CCCCC2)C1=S ?
Result: 0 (no)

Query: Query CSc1nc2c(c(O)c(C)c(=O)n2C2OCC(OC(C)=O)C(OC(C)=O)C2OC(C)=O)c(=O)n1C (centres undefined) next
Result: 0 (no)
